Observed IC50 values for HDAC1 (Homo sapiens) are listed in what follows.
Enter your answer as a number in nM; do not include the unit.

The molecule identified as O=C(/C=C/c1cccc(S(=O)(=O)NC[C@H]2CN(c3ccc(N4CCOCC4)c(F)c3)C(=O)O2)c1)NO [compound 5] registered its IC50 at 735

Form field IC50, entry O=C(/C=C/c1ccc(CNC[C@H]2CN(c3ccc(N4CCOCC4)c(F)c3)C(=O)O2)cc1)NO [compound 1] : 1090

###

- Test system: PT#3-R TMZ-resistant GBM cell line
- measurement_protocol: cells
- Format: cell-based
- recorded_conditions: Homo sapiens, MTT, 72 h
Reported values of IC50 for individual entries
Quick note: give the figure in µM, leave out the unit.

Would you please look over these solved cases?
{"molecule": "CC(C)c1cc(C(=O)N(C)C[C@H]2CN(c3ccc(N4CCOCC4)c(F)c3)C(=O)O2)c(O)cc1O [compound 9]", "study_system": "PT#3-R TMZ-resistant GBM cell line", "scale_unit": "µM", "IC50": 15.3}
{"molecule": "CCN(C[C@H]1CN(c2ccc(N3CCOCC3)c(F)c2)C(=O)O1)C(=O)c1cc(C(C)C)c(O)cc1O [compound 10]", "study_system": "PT#3-R TMZ-resistant GBM cell line", "scale_unit": "µM", "IC50": 48.8}
{"molecule": "O=C(NO)c1ccc(CNC[C@H]2CN(c3ccc(N4CCOCC4)c(F)c3)C(=O)O2)cc1 [compound 3]", "study_system": "PT#3-R TMZ-resistant GBM cell line", "scale_unit": "µM", "IC50": 114}
{"molecule": "O=C(CCCCCCC(=O)NC[C@H]1CN(c2ccc(N3CCOCC3)c(F)c2)C(=O)O1)NO [compound 2]", "study_system": "PT#3-R TMZ-resistant GBM cell line", "scale_unit": "µM", "IC50": 164}

With those in mind, consider the next molecule.
Lab note: Nc1ccccc1NC(=O)c1ccc(CNC[C@H]2CN(c3ccc(N4CCOCC4)c(F)c3)C(=O)O2)cc1 [compound 4] gave IC50 of 41.4

###

- measurement_protocol: Brain distribution study, UPLC of plasma and brain tissue extract
- Type: in vivo
- recorded_conditions: mouse, brain, ip, C57BL/6 mice, 360 mg/kg intraperitoneal, read-out: Brain conc.
endpoint_name: concentration at 30 min (ng/mL)
Give just the number in ng/mL; leave the unit off.

Input O=C(/C=C/c1ccc(CNC[C@H]2CN(c3ccc(N4CCOCC4)c(F)c3)C(=O)O2)cc1)NO . Output concentration at 30 min: 831

###

- measurement_protocol: Pharmacokinetic study in Sprague-Dawley rats
- Type: in vivo
- recorded_conditions: male, plasma, rat, 10 mg/kg intravenous
endpoint_name: MRT inf at 24 h (h)
Answer with a number only, understood to be in h.

According to the records, this compound O=C(/C=C/c1ccc(CNC[C@H]2CN(c3ccc(N4CCOCC4)c(F)c3)C(=O)O2)cc1)NO displays MRT inf at 24 h of 7.91

###

Entries and their pIC50 values follow.
- Tested on: A172-R TMZ-resistant GBM cell line
- measurement_protocol: MTT cytotoxicity assay, A172-R
- Assay type: cell-based
- recorded_conditions: Homo sapiens, 72 h
Worth noting: pIC50 values are minus log10 of concentrations stated in mol/L.

{"smiles_repr": "CC(C)c1cc(C(=O)NC[C@H]2CN(c3ccc(N4CCOCC4)c(F)c3)C(=O)O2)c(O)cc1O", "endpoint_name": "pIC50", "measured_result": 4.19}
{"smiles_repr": "CC(C)c1cc(C(=O)N(C)C[C@H]2CN(c3ccc(N4CCOCC4)c(F)c3)C(=O)O2)c(O)cc1O", "endpoint_name": "pIC50", "measured_result": 4.45}
{"smiles_repr": "CCN(C[C@H]1CN(c2ccc(N3CCOCC3)c(F)c2)C(=O)O1)C(=O)c1cc(C(C)C)c(O)cc1O", "endpoint_name": "pIC50", "measured_result": 4.09}
{"smiles_repr": "Nc1ccccc1NC(=O)c1ccc(CNC[C@H]2CN(c3ccc(N4CCOCC4)c(F)c3)C(=O)O2)cc1", "endpoint_name": "pIC50", "measured_result": 4.72}
{"smiles_repr": "O=C(/C=C/c1ccc(CNC[C@H]2CN(c3ccc(N4CCOCC4)c(F)c3)C(=O)O2)cc1)NO", "endpoint_name": "pIC50", "measured_result": 4.76}

// switching to the query molecule
A172-R TMZ-resistant GBM cell line pIC50 of O=C(NC[C@H]1CN(c2ccc(N3CCOCC3)c(F)c2)C(=O)O1)c1cc(Cl)ccc1O is 3.65

src = paper PMC11831592
